System: SW-620 colon
Assay: NCI-60 one-dose screen, 48 h
Details: 10 µM unless noted
Compounds without any hit were thinned out: in the full panel of roughly 83,000, 20% have a hit. Active and inactive are the calls of the source. How the source made its calls: active means growth percent below 10; inactive means the rest.
Outcomes: active, inactive

In [3]: df
Out[3]:
                                    compound  measured_target  assigned_label
 0                         COC(=O)c1ccccc1Cl     SW-620 colon        inactive
 1            CC(=O)c1cccc(OC(=O)c2ccccc2)c1     SW-620 colon        inactive
 2                 CC(=O)Nc1ccc2oc(=O)ccc2c1     SW-620 colon        inactive
 3                             OCc1cccc(F)c1     SW-620 colon        inactive
 4          COc1ccc2oc3c(ccc[n+]3C)c(=O)c2c1     SW-620 colon        inactive
 5                          CCN(CC)C(=S)SCCO     SW-620 colon        inactive
 6                 O=C(c1ccccc1)C1(Br)CCCCC1     SW-620 colon        inactive
 7                  CCNC1=CC(=O)c2ncccc2C1=O     SW-620 colon        inactive
 8                Clc1ccc2sc(-c3ccccc3)nc2c1     SW-620 colon        inactive
 9                            Cc1cccc(Cl)c1N     SW-620 colon        inactive
10                    ON=C(C1CCCCC1)C1CCCCC1     SW-620 colon        inactive
11  O=C1C2=C(Nc3cc(Cl)ccc3N2)OC1c1c[nH]c2ccc(COc3ccccc3)cc12 (stereo not drawn)     SW-620 colon        inactive
12  O=[N+]([O-])c1ccc(N/N=C/C2CCCCCC2)c([N+](=O)[O-])c1     SW-620 colon        inactive
13    O=C(c1ccncc1)c1c(Cc2ccccc2)ccc2ccccc12     SW-620 colon        inactive
14  O=C(N=C1C(=O)C2(CCCCC2)C2(N=C(c3ccccc3)OC2=O)C12CCCCC2)c1ccccc1 (stereo not drawn)     SW-620 colon        inactive
15       O=C(O)Cc1cc(=O)[nH]n(-c2ccccc2)c1=O     SW-620 colon        inactive
16                           O=COCCCc1ccccc1     SW-620 colon        inactive
17                  Cc1cc(Cl)nc(Nc2ccccc2)n1     SW-620 colon        inactive
18  N#Cc1c(N)nc2c(c(-c3ccc(Cl)cc3)nn2-c2ccccc2)c1C#N     SW-620 colon        inactive
19               O=S(=O)(O)c1ccc2cc(O)ccc2c1     SW-620 colon        inactive
20                   C=CCN1C(=O)c2ccccc2C1=O     SW-620 colon        inactive
21                              OCCCc1ccccc1     SW-620 colon        inactive
22  O=c1[nH]c(=O)n(C2OC(CO)C(O)C2O)cc1I (stereo not drawn)     SW-620 colon        inactive
23          COc1ccc(S(=O)(=O)c2ccc(F)cc2)cc1     SW-620 colon        inactive
24       O=c1[nH]c(=O)c2[nH]c(=O)[nH]c2[nH]1     SW-620 colon        inactive
25  CN1C2C=CC(=O)C1C1C(=O)N(c3ccccc3)C(=O)C12 (stereo not drawn)     SW-620 colon        inactive
26          CCCC(=O)OCC(COC(=O)CCC)OC(=O)CCC     SW-620 colon        inactive
27  CCN(CC)C(CC(=O)c1ccccc1)C(=O)c1ccccc1 (stereo not drawn)     SW-620 colon          active
